# tested-target: SHV-5 β-lactamase (Klebsiella pneumoniae)
# Construct: expressed as native untagged proteins; made in house; host or cells: E. coli BL21(DE3)
# Sequence (P0A3M1 22-286): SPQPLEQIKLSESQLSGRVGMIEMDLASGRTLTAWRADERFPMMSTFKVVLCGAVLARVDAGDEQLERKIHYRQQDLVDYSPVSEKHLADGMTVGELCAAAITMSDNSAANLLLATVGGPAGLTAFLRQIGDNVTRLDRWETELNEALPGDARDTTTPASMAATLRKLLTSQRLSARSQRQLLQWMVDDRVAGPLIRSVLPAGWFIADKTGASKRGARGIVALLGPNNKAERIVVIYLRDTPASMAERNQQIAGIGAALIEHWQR
# assay-remarks: β-lactamase enzyme inhibition assay (nitrocefin substrate), SHV-5
# Assay type: biochemical
value-type: pIC50
// scale note: pIC50 = -log10(conc_M); give the bare number

Data point: `CC(=O)NCc1ccc(CC(=O)N[C@@H](Cc2cccc(C(=O)O)c2O)B(O)O)cc1` ; pIC50 = 9.52

Data point: `O=C(Cc1ccc(CN2CCCC2)cc1)N[C@@H](Cc1cccc(C(=O)O)c1O)B(O)O` ; pIC50 = 8.30

Data point: `O=C(N[C@@H](Cc1cccc(C(=O)O)c1O)B(O)O)c1cccc(CNc2cccnc2)c1` ; pIC50 = 7.03

Data point: `CNCc1ccc(CC(=O)N[C@@H](Cc2cccc(C(=O)O)c2O)B(O)O)cc1` ; pIC50 = 8.30
